Assay: Acute toxicity by intraperitoneal injection
Conditions: mouse, in vivo, ip, mice (ICR, male, 4 weeks old)
Excerpt: Acute toxicity of FR-900848 substance in mice (ICR, male, 4 weeks old) by intraperitoneal injection is more than 1.0 g/kg.
Attribute Measured: LD50

Exercise: Request the reported LD50 associated with CC1CC1C=CC1CC1C1CC1C1CC1C1CC1C=CC=CC(=O)NCC1OC(N2CCC(=O)NC2=O)C(O)C1O (stereo not shown) [FR-900848 substance]
Solution: > 1000 mg/kg
